- PROCEDURE_SUMMARY: Inhibition of Haemophilus influenzae DNA gyrase-dependent DNA replication by scintillation proximity assay
VALUE_TYPE: IC50 (µg/mL)

These solved cases illustrate the format of a correct answer.
In [3]: df
Out[3]:
                         compound_structure  value_units  measured_number
0  COc1ccc2ncc(F)c(CCN3CC[C@@H](NCc4cc5c(cn4)OCCO5)[C@@H](O)C3)c2n1        µg/mL            0.051
1  COc1ccc2ncc(F)c(CCN3CCC(NCc4cc5c(cn4)OCCO5)CC3)c2n1        µg/mL            0.051

A = COc1ccc2ncc(F)c(CCN3CC[C@H](NCc4cc5c(cn4)OCCO5)[C@@H](O)C3)c2n1
B = COc1ccc2ncc(Cl)c(CCN3CCC(NCc4cc5c(cn4)OCCO5)CC3)c2n1
C = COc1ccc2ncc(C#N)c(CCN3CCC(NCc4cc5c(cn4)OCCO5)CC3)c2n1
Arrange the 3 compounds by rising IC50, starting with the smallest. Your reply should list the labels following the order given in the request.
B, A, C
(B: 0.027 µg/mL, A: 0.058 µg/mL, C: 0.144 µg/mL)

a = COc1ccc2ncc(F)c(CCN3CCC(NCc4cc5c(cn4)OCCO5)CC3)c2c1
b = COc1ccc2ncc(F)c([C@@H](O)CN3CCC(NCc4cc5c(cn4)OCCO5)CC3)c2n1
Between a and b , which one shows the larger IC50 value? Label of pick, please.
b

* * *

- PROCEDURE_SUMMARY: AUC in Sprague-Dawley rat at 5.6 mg/kg, po
- Assay type: ADME, organism-based
- Design: dose 5.6 mg/kg, route oral
- TEST_CONDITIONS: plasma
VALUE_TYPE: AUC (ng·h/mL)
Numeric only. Scale: ng·h/mL

Lab note: "COc1ccc2ncc(F)c([C@@H](O)CN3CCC(NCc4cc5c(cn4)OCCO5)CC3)c2n1" gave AUC of 720

* * *

- PROCEDURE_SUMMARY: Distribution coefficient, log D of the compound at pH 7.4
- Type: physicochemical
- TEST_CONDITIONS: octanol/water
VALUE_TYPE: logD

These solved cases illustrate the format of a correct answer.
>>> print(df.to_string())
                         compound_structure  measured_number
0  COc1ccc2nccc([C@@H](O)CN3CCC(NCc4ccc5c(c4)OCCO5)CC3)c2c1             0.87
1  COc1ccc2nccc([C@@H](O)CN3CCC(NCc4cc5c(cn4)OCCO5)CC3)c2n1             0.62
2  COc1ccc2ncc(F)c([C@@H](O)CN3CCC(NCc4cc5c(cn4)OCCO5)CC3)c2n1             0.59
3  COc1ccc2ncc(C#N)c(CCN3CCC(NCc4cc5c(cn4)OCS5)CC3)c2c1             2.32
4  COc1ccc2ncc(F)c(CCN3CC[C@H](NCc4cc5c(cn4)OCCO5)[C@@H](O)C3)c2n1              2.1

a = COc1ccc2ncc(C#N)c(CCN3CCC(NCc4cc5c(cn4)OCCO5)CC3)c2n1
b = COc1ccc2ncc(Cl)c(CCN3CCC(NCc4cc5c(cn4)OCCO5)CC3)c2n1
// select label with min value of measured logD from [ a , b ] Label of pick, please.
a
